Hello, the source for this data is paper PMC10133546, in case you need it.

Measured Working solution Accuracy (%) by item
Assay: Stability of the working solution (4°C for 1 month)
Format: physicochemical
Conditions: 50 ng/mL
Use % as the unit, but write only the number.

MOLECULE: COc1ccc(/C=C/C(=O)O)cc1O [isoferulic acid]
EXPERIMENTAL READOUT: Working solution Accuracy (%)
QUANTITATIVE READOUT: 100.0
//
MOLECULE: COc1ccc([C@@H]2CC(=O)c3c(O)cc(O[C@@H]4O[C@H](CO[C@@H]5O[C@@H](C)[C@H](O)[C@@H](O)[C@H]5O)[C@@H](O)[C@H](O)[C@H]4O)cc3O2)cc1O [hesperidin]
EXPERIMENTAL READOUT: Working solution Accuracy (%)
QUANTITATIVE READOUT: 109.0
//
MOLECULE: O=C1C[C@@H](c2ccc(O)cc2)Oc2cc(O)cc(O)c21 [naringenin]
EXPERIMENTAL READOUT: Working solution Accuracy (%)
QUANTITATIVE READOUT: 102.0
//
MOLECULE: CC(C)=CCC[C@](C)(O)[C@H]1CC[C@]2(C)[C@@H]1[C@H](O)C[C@@H]1[C@@]3(C)CC[C@H](O)C(C)(C)[C@@H]3[C@@H](O[C@@H]3O[C@H](CO)[C@@H](O)[C@H](O)[C@H]3O)C[C@]12C [ginsenoside Rh1]
EXPERIMENTAL READOUT: Working solution Accuracy (%)
QUANTITATIVE READOUT: 106.0
//
MOLECULE: O.Oc1cc(O)c2c(c1)O[C@H](c1ccc(O)c(O)c1)[C@@H](O)C2 [catechin]
EXPERIMENTAL READOUT: Working solution Accuracy (%)
QUANTITATIVE READOUT: 106.0

Continue with the next molecule.
Entry COc1cc(/C=C/C(=O)O)ccc1O [ferulic acid] — recorded Working solution Accuracy (%) = 96.8
